# credit: patent US20160185837A1

system_tested: T1, mouse GIP receptor (mGIPr) (Mus musculus, UniProt Q0P543)
T1 construct: expressed in transfected cells; host or cells: HEK293s or CHO cells
T1 sequence (Q0P543 19-460): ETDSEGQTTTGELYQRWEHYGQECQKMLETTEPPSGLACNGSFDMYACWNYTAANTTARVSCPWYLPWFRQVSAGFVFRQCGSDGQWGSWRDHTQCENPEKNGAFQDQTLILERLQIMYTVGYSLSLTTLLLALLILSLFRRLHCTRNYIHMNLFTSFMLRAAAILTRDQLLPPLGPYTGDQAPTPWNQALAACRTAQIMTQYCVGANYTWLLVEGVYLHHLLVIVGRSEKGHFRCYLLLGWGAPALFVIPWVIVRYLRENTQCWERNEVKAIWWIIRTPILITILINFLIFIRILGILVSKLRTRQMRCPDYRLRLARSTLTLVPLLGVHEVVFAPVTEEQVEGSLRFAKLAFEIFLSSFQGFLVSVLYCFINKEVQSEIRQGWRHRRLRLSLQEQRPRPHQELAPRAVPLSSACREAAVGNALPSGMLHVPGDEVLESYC
protocol_notes: BSA-cAMP assay, cells expressing mouse GIP receptor
Assay type: cell-based
test_conditions: Batch 1; BSA-cAMP assay; read-out: mGIPr cAMP activity EC50
measured_property: EC50 (nM)
Only the number, expressed in nM, is required.

Past entries and their recorded results:
>  <molecule>
IP376 (protein) YSEGTFTSLFSKLLERQAIDEFIAWLLKGGAAAGGSGSTASSGSGSATGGGGAATHTCPPC

>  <EC50 (nM)>
0.55

$$$$
>  <molecule>
IP375 (protein) YSEGTHTSLFSKLLERQAIDEFIAWLLKGGAAAGGSGSTASSGSGSATGGGGAATHTCPPC

>  <EC50 (nM)>
0.65

$$$$
>  <molecule>
IP373 (protein) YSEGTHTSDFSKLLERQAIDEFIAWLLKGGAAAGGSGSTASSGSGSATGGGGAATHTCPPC

>  <EC50 (nM)>
3.2

$$$$

Looking up IP351 (protein) YSEGTFISDYSIAMDKIHQQDFVNWLLAQKPSSGAPPPSGGGGSGGGGSGGGGSGGGGSACPPC , I see its EC50 listed as 0.0098

// recorded EC50 for IP309 (protein) YSEGTFISDVSSYLERQAIDEFIAWLLKGGAAAGGSGSTASSGSGSATGGGGAATHTCPPC : 15

Just so you know, measured EC50 for IP378 (protein) YSEGTFTSLYRILLERQAIDEFIAWLLKGGAAAGGSGSTASSGSGSATGGGGAATHTCPPC came out at 3.1

// IP306 (protein) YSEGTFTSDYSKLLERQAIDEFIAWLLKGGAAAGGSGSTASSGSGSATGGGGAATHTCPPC : EC50 value = 0.25

Given item IP394 (protein) YSEGMHTSDLSKLLERQAIDEFIAWLLKGGAAAGGSGSTASSGSGSATGGGGAATHTCPPC , the value recorded as its EC50 is 10

Kindly note the recorded EC50 for IP321 (protein) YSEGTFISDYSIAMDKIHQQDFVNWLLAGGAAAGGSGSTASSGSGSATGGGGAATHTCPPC , which is 0.017
